- Target entity: SARS-COV-2 RBD-MMH (SARS-COV-2 RBD extracellular domain with C-terminal myc-myc-hexahistidine tag) (SARS-CoV-2)
- Measurement description: SPR 37C, mAb captured, pH 7.4 vs pH 6.0
Measured t½ Ratio of pH 7.4 to pH 6.0 values are reported for all entries that follow.
Observable: t½ Ratio of pH 7.4 to pH 6.0

1. mAb15165 (antibody, V domains shown) VH: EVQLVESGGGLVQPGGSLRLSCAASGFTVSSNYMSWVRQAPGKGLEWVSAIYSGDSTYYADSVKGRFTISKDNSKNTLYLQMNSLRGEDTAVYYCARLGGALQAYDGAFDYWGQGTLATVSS VL: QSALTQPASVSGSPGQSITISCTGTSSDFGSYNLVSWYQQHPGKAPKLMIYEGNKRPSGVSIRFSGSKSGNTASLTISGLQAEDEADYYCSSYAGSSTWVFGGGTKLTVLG    0.8
2. mAb14258 (antibody, V domains shown) VH: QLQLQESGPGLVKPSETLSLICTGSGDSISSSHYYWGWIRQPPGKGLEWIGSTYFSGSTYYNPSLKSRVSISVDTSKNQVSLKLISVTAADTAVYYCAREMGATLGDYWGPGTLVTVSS VL: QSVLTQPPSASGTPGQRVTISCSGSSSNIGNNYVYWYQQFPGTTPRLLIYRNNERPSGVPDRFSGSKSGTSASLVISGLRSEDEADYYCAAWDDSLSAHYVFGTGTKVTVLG    0.3
3. mAb14281 (antibody, V domains shown) VH: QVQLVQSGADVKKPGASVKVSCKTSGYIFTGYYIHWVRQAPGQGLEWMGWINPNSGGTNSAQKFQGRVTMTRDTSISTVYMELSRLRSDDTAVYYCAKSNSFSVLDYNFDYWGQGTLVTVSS VL: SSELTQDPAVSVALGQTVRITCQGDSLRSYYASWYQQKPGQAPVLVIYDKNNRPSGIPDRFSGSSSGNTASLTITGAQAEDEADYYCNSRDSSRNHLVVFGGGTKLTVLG    1.1
